Experiment: Stability of the analytes in rat plasma QC samples under storage conditions
Type: in vitro ADME
Settings: 300 ng/mL, three freeze-thaw cycles
valueType: Freeze-thaw cycles Remain (%)

[
  {
    "compound": "COC(=O)C1=CO[C@@H](O[C@@H]2O[C@H](CO)[C@@H](O)[C@H](O)[C@H]2O)[C@@H]2C(CO)=CC[C@H]12 [Geniposide]",
    "Freeze-thaw cycles Remain (%)": 93.1
  },
  {
    "compound": "COC(=O)C1=CO[C@@H](O[C@@H]2O[C@H](CO[C@@H]3O[C@H](CO)[C@@H](O)[C@H](O)[C@H]3O)[C@@H](O)[C@H](O)[C@H]2O)[C@@H]2C(CO)=CC[C@H]12 [Genipin-1-β-gentiobioside]",
    "Freeze-thaw cycles Remain (%)": 101
  },
  {
    "compound": "COC(=O)C1=CO[C@@H](O)[C@@H]2C(CO)=CC[C@H]12",
    "Freeze-thaw cycles Remain (%)": 95.9
  },
  {
    "compound": "CC(/C=C/C=C(\\C)C(=O)O)=C\\C=C\\C=C(C)\\C=C\\C=C(/C)C(=O)O",
    "Freeze-thaw cycles Remain (%)": 98.6
  },
  {
    "compound": "O=C(O)C1=CO[C@@H](O[C@@H]2O[C@H](CO)[C@@H](O)[C@H](O)[C@H]2O)[C@@H]2C(CO)=CC[C@H]12",
    "Freeze-thaw cycles Remain (%)": 107
  }
]
